- TARGET_ENTITY: Glycogen synthase kinase-3 beta (Homo sapiens)
- Sequence (P49841 whole entry, looked up): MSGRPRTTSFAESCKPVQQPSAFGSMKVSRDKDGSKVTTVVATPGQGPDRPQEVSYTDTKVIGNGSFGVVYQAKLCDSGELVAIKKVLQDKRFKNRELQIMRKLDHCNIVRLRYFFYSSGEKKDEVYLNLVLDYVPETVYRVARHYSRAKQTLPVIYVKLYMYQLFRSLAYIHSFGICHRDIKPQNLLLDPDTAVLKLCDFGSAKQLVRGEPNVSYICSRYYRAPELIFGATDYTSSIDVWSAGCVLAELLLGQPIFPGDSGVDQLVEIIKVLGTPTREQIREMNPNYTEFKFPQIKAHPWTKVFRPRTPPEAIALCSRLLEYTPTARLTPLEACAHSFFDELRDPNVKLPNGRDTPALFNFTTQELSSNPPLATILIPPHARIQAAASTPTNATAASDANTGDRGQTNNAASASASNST
- EXPERIMENT: Inhibition of human recombinant GSK-3beta using prephosphorylated polypeptide as substrate incubated for 30 mins in presence of ATP by Kinase-Glo luminescence assay relative to control
In this section, each of the compounds is paired with its reported inhibition.

Below, 3 compounds whose answers are already recorded.
INSERT INTO assay_data (smiles_notation, value) VALUES
  ('Cn1c(NCCCCCCCNc2c3c(nc4ccc(F)cc24)CCCC3)nc(-c2ccncc2)cc1=O', '< 60%'),
  ('Cn1c(NCCNc2c3c(nc4cc(F)ccc24)CCCC3)nc(-c2ccncc2)cc1=O', '< 50%'),
  ('Cn1c(NCCNc2c3c(nc4cc(Cl)ccc24)CCCC3)nc(-c2ccncn2)cc1=O', '< 50%');

Now examine the next entry.
Given `Cn1c(NCCNc2c3c(nc4cc(Cl)ccc24)CCCC3)nc(-c2ccncc2)cc1=O` , state its recorded inhibition.
< 50%

----------
The reader will find reported pIC50 values listed item by item below.
- TARGET_ENTITY: Acetylcholinesterase (Mus musculus, UniProt P21836)
- Sequence (P21836 whole entry): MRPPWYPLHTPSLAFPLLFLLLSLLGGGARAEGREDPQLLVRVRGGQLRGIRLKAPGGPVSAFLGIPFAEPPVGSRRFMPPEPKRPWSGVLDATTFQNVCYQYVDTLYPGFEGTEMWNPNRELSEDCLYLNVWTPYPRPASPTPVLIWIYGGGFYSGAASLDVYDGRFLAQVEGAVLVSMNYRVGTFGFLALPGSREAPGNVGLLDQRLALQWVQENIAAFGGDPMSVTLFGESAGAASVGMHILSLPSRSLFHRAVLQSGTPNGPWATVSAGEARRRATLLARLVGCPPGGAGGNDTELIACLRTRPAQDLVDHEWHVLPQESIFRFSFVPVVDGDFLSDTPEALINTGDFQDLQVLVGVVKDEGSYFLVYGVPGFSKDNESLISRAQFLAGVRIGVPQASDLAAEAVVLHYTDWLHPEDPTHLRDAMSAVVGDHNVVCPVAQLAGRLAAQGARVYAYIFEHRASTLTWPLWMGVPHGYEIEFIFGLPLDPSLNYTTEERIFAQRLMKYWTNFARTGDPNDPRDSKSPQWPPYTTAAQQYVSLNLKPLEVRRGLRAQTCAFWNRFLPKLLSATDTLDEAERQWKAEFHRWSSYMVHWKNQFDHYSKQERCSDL
- EXPERIMENT: Inhibition of mouse AChE using acetylthiocholine iodide as substrate incubated for 20 mins by Ellman's method
Here pIC50 is given on a logarithmic scale as minus log10 of the concentration in mol/L.

INSERT INTO assay_data (smiles_notation, value) VALUES
  ('Cn1c(NCCNc2c3c(nc4ccccc24)CCCC3)nc(-c2ccncn2)cc1=O', 6.10),
  ('Cn1c(NCCNc2c3c(nc4ccc(Cl)cc24)CCCC3)nc(-c2ccncn2)cc1=O', 4.73);

Please find the next compound below.
Which measured pIC50 belongs to `Cn1c(NCCNc2c3c(nc4cc(C(F)(F)F)ccc24)CCCC3)nc(-c2ccncc2)cc1=O` , tested on Acetylcholinesterase (Mus musculus, UniProt P21836)?
4.95
